# System: EV-D68
# RUN DESCRIPTION: Inhibition of EV-D68-induced cytopathogenicity in HeLa cells (MTT)
# Assay type: cell-based, human enterovirus D 68 strain Fermon
# CONDITION CONTEXT: Enterovirus D, EVD68, m.o.i. 0.01
REPORTED PROPERTY: EC50

COMPOUND | EC50
CC(C)c1ccc(-c2nc3cc(F)ccc3[nH]2)cc1 [Compound 4a] | > 100 µM
CC(C)c1ccc(-c2nc3ccccc3[nH]2)cc1 [Compound 1a] | > 9 µM
CC(C)(C)c1ccc(-c2nc3ccccc3[nH]2)cc1 [Compound 1b] | > 9 µM

Pending compound:
Problem: Specify reported EC50 for the compound shown: CC(C)(C)c1ccc(-c2nc3cc(Cl)ccc3[nH]2)cc1 [Compound 2b]
Solution: > 100 µM
